- system-under-test: T1, 4H3378-AA
- T1 chain: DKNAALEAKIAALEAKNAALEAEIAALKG
- assay-details: two-hybrid library CCmax;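 note: natural log of median RNA to DNA barcode read ratio; higher means stronger binding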
- stated-conditions: mean of both orientations
experimental-readout: interaction score

Record summary for DKIAALEAKNAALKAKNAALKAEIAALEG [4H2553-AA] : reported interaction score = -1.98

// sample DEIAALEAEIAALEAENAALKAKNAALKG [4H32-AA] , its interaction score was -1.84

Briefly, interaction score measured for DKIAALKAEIAALEAKNAALKAENAALKG [4H2620-AA] : -1.66

1. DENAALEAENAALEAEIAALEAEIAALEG [4H1153-AA]
2. DKNAALEAEIAALEAKNAALKAKIAALEG [4H3133-AA]
Exercise: I need your help: which of the pair 1 , 2 has higher interaction score? Answer with the label corresponding to your selection.
Solution: 2

I. DENAALEAKNAALKAKIAALKAEIAALEG [4H1513-AA]
II. DKIAALKAEIAALEAKNAALEAENAALEG [4H2611-AA]
Exercise: I'd appreciate it if you could identify which of I and II has the greater interaction score. Could you answer with the label of the item you picked?
Solution: I
(I: -1.77, II: -2.55)
